# Tested on: HepG2 2.2.15
# protocol_description: Cytotoxicity against human HepG2.2.15 cells assessed as reduction in cell viability incubated for 12 hrs followed by replacement of fresh medium containing compound and measured after 2 days by CCK-8 assay
# Type: functional
CC50 overview
Supply the numeric figure in µM, leaving out any unit text.

(Q) Quick one: CC50 for C[C@H](CCC(=O)OCCCOP(=O)(COCCn1cnc2c(N)ncnc21)OCCCOC(=O)[C@@H](C)N)[C@H]1CC[C@H]2[C@@H]3CC[C@@H]4C[C@H](O)CC[C@]4(C)[C@H]3C[C@H](O)[C@]12C (stereo not given in full) ?
(A) 1050

(Q) Query CC(C)C[C@@H](N)C(=O)OCCCOP(=O)(COCCn1cnc2c(N)ncnc21)OCCCOC(=O)CC[C@@H](C)[C@H]1CC[C@H]2[C@@H]3[C@@H](O)C[C@@H]4C[C@H](O)CC[C@]4(C)[C@H]3CC[C@]12C (stereo not given in full) next
(A) 446

(Q) Query C[C@H](CCC(=O)OCCCOP(=O)(COCCn1cnc2c(N)ncnc21)OCCCSC(=O)[C@@H](N)Cc1ccccc1)[C@H]1CC[C@H]2[C@@H]3CC[C@@H]4C[C@H](O)CC[C@]4(C)[C@H]3C[C@H](O)[C@]12C (stereo not given in full) next
(A) 789

(Q) Query CC(C)(C)C(=O)OCOP(=O)(COCCn1cnc2c(N)ncnc21)OCOC(=O)C(C)(C)C next
(A) 439

(Q) Query CC[C@H](C)[C@@H](N)C(=O)OCCCOP(=O)(COCCn1cnc2c(N)ncnc21)OCCCOC(=O)CC[C@@H](C)[C@H]1CC[C@H]2[C@@H]3CC[C@@H]4C[C@H](O)CC[C@]4(C)[C@H]3C[C@H](O)[C@]12C (stereo not given in full) next
(A) 1880

====

# protocol_description: Drug distribution in mouse liver at 5.47 mg/kg, po measured at 3 hrs by LC-MS/MS analysis
# Type: ADME, organism-based
# assay_context: read-out: Drug uptake
parameter_measured: concentration at 3 h
Note: a bare number is incomplete; add the unit.

(Q) Quick one: concentration at 3 h for CC(C)C[C@@H](N)C(=O)OCCCOP(=O)(COCCn1cnc2c(N)ncnc21)OCCCOC(=O)CC[C@@H](C)[C@H]1CC[C@H]2[C@@H]3[C@@H](O)C[C@@H]4C[C@H](O)CC[C@]4(C)[C@H]3CC[C@]12C (stereo partly specified) ?
(A) 1160 ng/g

====

# protocol_description: Drug distribution in mouse liver at 5.47 mg/kg, po measured at 60 mins by LC-MS/MS analysis
# Type: ADME, organism-based
# assay_context: read-out: Drug uptake
parameter_measured: concentration at 1 h (ng/g)
Supply the numeric figure in ng/g, leaving out any unit text.

(Q) Quick one: concentration at 1 h for CC(C)C[C@@H](N)C(=O)OCCCOP(=O)(COCCn1cnc2c(N)ncnc21)OCCCOC(=O)CC[C@@H](C)[C@H]1CC[C@H]2[C@@H]3[C@@H](O)C[C@@H]4C[C@H](O)CC[C@]4(C)[C@H]3CC[C@]12C (stereo partly specified) ?
(A) 1070
